- system_under_test: UniProtKB P00797
- Sequence (P00797 67-406): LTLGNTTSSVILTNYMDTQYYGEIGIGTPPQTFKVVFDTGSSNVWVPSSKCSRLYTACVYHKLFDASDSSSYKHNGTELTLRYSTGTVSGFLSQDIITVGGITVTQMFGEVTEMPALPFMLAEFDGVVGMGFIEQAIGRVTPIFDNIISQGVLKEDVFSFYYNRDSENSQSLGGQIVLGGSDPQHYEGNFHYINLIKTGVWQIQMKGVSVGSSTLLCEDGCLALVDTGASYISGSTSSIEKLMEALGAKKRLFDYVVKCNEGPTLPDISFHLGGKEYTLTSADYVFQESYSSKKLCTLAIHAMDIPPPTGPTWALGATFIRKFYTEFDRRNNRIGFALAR
- experiment_notes: Human Renin Inhibition in vitro (angiotensin I generation by radioimmunoassay)
- experimental_setup: pH 7.4, 37° C., two hours, human plasma
attribute_measured: IC50
Record the result as number plus unit.

Check out these entries, answers already filled in.
INSERT INTO results (smiles_record, val) VALUES
  ('C#CC[C@H](NC(=O)[C@@H](CC(=O)N(C)CCN1Cc2ccccc2C1)Cc1ccccc1)C(=O)N[C@@H](CC1CCCCC1)[C@@H](O)[C@@H](O)CC(C)C', '0.56 nM'),
  ('C#CC[C@H](NC(=O)[C@@H](CC(=O)N(C)CCN1CCCCC1)Cc1ccccc1)C(=O)N[C@@H](CC1CCCCC1)[C@@H](O)[C@@H](O)CC(C)C', '0.83 nM');

Exam item: Given the entry C#CC[C@H](NC(=O)[C@@H](CC(=O)N(C)CCN1CC2CCC(CC2)C1)Cc1ccccc1)C(=O)N[C@@H](CC1CCCCC1)[C@@H](O)[C@@H](O)CC(C)C , report its measured IC50.
Marked response: 1.2 nM

Hello, the source for this data is patent US5212185A, in case you need it.
